B1: FAM46D (parent)
chain: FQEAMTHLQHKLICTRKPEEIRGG

variants of: B1; experiment: protein stability index of a GFP-peptide fusion (GPS, HEK-293T) (PSI 1-6); higher = more stable; conditions: c terminus: a fixed tail appended;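 also: lentivirally expressed fusions sorted by FACS into six bins by GFP to DsRed ratio, PSI derived from sequencing read proportions per bin multiplied by bin number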
Response key: met means protein stability index >= 3; not met means protein stability index < 3.

Previously resolved entries follow.
Seq Text	Assigned Category
FQEAMLHLQHKLICTRKPEEIRGG	not met
FQEAMTHLQHKLICTRKPEEIMGG	not met
FQTAMTHLQHKLICTRKPEEIRGG	not met

Request: Determine whether measured protein stability index meets or exceeds 3 for "FQEAMTHLQHKLICTCKPEEIRGG"
Response: not met

Request: Determine whether measured protein stability index meets or exceeds 3 for "FQEAMTRLQHKLICTRKPEEIRGG"
Response: not met
